inhibition (reported as % activation of signal) values for the molecules below.
- assayedTarget: DNA (cytosine-5)-methyltransferase 1 (Homo sapiens) (UniProt P26358)
- Sequence (P26358 504-1616 limits assumed): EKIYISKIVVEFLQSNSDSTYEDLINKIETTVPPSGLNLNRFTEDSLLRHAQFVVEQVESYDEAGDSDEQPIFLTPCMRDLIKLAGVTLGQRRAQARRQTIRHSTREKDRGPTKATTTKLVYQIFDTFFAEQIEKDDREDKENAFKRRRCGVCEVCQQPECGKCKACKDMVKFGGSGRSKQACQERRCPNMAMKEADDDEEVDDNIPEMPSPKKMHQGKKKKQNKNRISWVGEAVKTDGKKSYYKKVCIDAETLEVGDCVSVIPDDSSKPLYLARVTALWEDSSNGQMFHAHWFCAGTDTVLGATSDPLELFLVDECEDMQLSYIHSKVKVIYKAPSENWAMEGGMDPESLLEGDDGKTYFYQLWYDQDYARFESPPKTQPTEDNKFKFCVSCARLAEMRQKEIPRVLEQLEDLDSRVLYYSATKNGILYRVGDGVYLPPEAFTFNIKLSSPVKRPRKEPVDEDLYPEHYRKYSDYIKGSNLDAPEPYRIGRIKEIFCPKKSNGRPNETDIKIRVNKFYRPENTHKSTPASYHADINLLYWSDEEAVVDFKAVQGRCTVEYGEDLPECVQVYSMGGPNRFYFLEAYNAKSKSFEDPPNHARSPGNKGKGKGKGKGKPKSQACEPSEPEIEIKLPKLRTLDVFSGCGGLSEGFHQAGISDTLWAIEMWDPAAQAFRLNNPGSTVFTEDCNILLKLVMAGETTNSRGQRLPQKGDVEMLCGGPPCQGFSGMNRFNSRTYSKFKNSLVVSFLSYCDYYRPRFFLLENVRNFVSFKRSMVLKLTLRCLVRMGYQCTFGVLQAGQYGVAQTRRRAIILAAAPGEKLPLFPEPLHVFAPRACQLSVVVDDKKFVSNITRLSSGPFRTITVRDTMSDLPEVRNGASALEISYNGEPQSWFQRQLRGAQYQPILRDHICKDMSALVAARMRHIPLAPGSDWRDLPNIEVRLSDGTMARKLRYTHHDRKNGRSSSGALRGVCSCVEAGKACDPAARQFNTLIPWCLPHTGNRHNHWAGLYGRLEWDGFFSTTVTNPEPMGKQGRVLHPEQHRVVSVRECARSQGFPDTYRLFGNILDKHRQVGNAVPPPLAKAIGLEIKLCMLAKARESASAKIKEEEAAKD
- experimentNotes: inhibition of DNA methyltransferase DNMT1 – biochemical, molecular beacon, fluorescence, HinP1I cleavage, uHTS, primary screen (AID 588458)
- testParameters: at 10 µM, hits give high values
Out of some 360,000 compounds screened, about 3,000 (0.83%) were called active. Only a selection was taken, and actives are over-represented in it overall.
Quick note: give the figure in %, leave out the unit.

Known results for molecules:
# molecule, unitOfMeasurement, valueMeasured
records = [
    ("COc1ccc(Cl)cc1NC(=O)COC(=O)c1ccc(Br)o1", "%", -6),
    ("CCCCC(=O)N/N=C(\\C)CC(=O)Nc1cc(Cl)ccc1OC", "%", 2.33),
    ("O=C(CCS(=O)(=O)c1ccc(Br)cc1)NCCc1ccc(Cl)cc1", "%", 68.7),
    ("Cc1ccc2[nH]c(=O)c(-c3nc4c(C)cccn4c3NCc3ccco3)cc2c1", "%", 50.4),
    ("COc1ccc(Cl)cc1NC(=O)CCS(=O)(=O)c1ccc(Br)cc1", "%", 94.1),
    ("CCCCc1nc2cc(C(=O)N3CCCCC3CCO)ccc2o1 (stereo unspecified)", "%", 0.96),
    ("Cc1ccc(S(=O)(=O)CCC(=O)OCC(=O)NCCc2ccc(S(N)(=O)=O)cc2)cc1", "%", -1.16),
    ("Oc1c(C(c2ccco2)N2CCC3(CC2)OCCO3)sc2ncnn12 (stereo unspecified)", "%", 84.4),
]

-- ask # lookup: inhibition (reported as % activation of signal) of Cc1ccc2nc(SC(C)C(=O)NCc3ccco3)[nH]c2c1 (stereo unspecified)
-- reply -2.41

-- ask One more molecule: Cc1noc(C)c1COc1ccccc1C(=O)N(C)CC(=O)Nc1cccc(F)c1
-- reply 1.78

-- ask Likewise for CCCn1nnnc1NCc1ccc(CC)cc1 ?
-- reply 0.45

Where these numbers come from: PubChem BioAssay AID588458
